# Tested on: CN0375-F725-PDC KRAS spheroid viability
# PROCEDURE_TEXT: Anticancer human tumor CN0375-F725-PDC patient-derived colon carcinoma cell line growth inhibition [KRAS2]
# ASSAY_CONTEXT: second compound 3.16 µM; first compound 0.0316 µM; hits give low values; spheroids with HUVEC and MSC
# From the text: Multicellular complex tumor spheroid response to RAS pathway inhibitors in combination with a targeted agents in patient-derived cell lines with oncogenic KRAS variants from multiple cancer types A high-throughput screen of multi-cell type tumor spheroids was designed to identify active combinations of targeted small molecules and KRAS pathway inhibitors. […] Compounds. […] If the clinical Cmax for an agent had not been determined, the highest concentration tested was 10 microM. […]
EXPERIMENTAL_READOUT: viability, T/C (%)
Answers are plain numbers, in %.

Example cases with answers are listed next.
COMPOUND	EXPERIMENTAL_READOUT	RECORDED_NUMBER
CC(C)n1nc(-c2ccc3oc(N)nc3c2)c2c(N)ncnc21 + CC1OCC2(CCN(c3cnc(Sc4ccnc(N)c4Cl)c(N)n3)CC2)C1N	viability, T/C	46.9
CCN1CCN(Cc2ccc(Nc3ncc(F)c(-c4cc(F)c5nc(C)n(C(C)C)c5c4)n3)nc2)CC1 + C=CC(=O)N1CCN(c2nc(OCC3CCCN3C)nc3c2CCN(c2cccc4cccc(C)c24)C3)CC1CC#N	viability, T/C	17.9
COc1cc2nccc(Oc3ccc(NC(=O)C4(C(=O)Nc5ccc(F)cc5)CC4)cc3)c2cc1OC + COc1cc2nc(C)nc(NC(C)c3cc(N)cc(C(F)(F)F)c3)c2cc1OC1CCOC1	viability, T/C	76.2
CC(C)n1nc(-c2ccc3oc(N)nc3c2)c2c(N)ncnc21 + C=CC(=O)N1CCN(c2nc(=O)n(-c3c(C)ccnc3C(C)C)c3nc(-c4c(O)cccc4F)c(F)cc23)C(C)C1	viability, T/C	55.5

Kindly consider the entry below.
Could you share which viability, T/C value was measured for CC(=O)Nc1cccc(-n2c(=O)n(C3CC3)c(=O)c3c(Nc4ccc(I)cc4F)n(C)c(=O)c(C)c32)c1 + CNCc1ccccc1-c1csc(C(C)Nc2nc(C)nc3cc(OC)c(OC)cc23)c1 ?
0.73

###

# Test system: CN0375-F725-PDC KRAS spheroid viability
# PROCEDURE_TEXT: Anticancer human tumor CN0375-F725-PDC cell line growth inhibition [KRAS2];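 note: spheroids exposed to agents for 7 days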
# ASSAY_CONTEXT: second compound 3.16 µM; first compound 0.1 µM; hits give low values; spheroids with HUVEC and MSC
For each record, write down the corresponding viability, T/C.
One number for each entry, in %.

Quick batch: viability, T/C for everything below.
1. COc1cc2nccc(Oc3ccc(NC(=O)C4(C(=O)Nc5ccc(F)cc5)CC4)cc3)c2cc1OC + CC1OCC2(CCN(c3cnc(Sc4ccnc(N)c4Cl)c(N)n3)CC2)C1N
2. Cn1nccc1Nc1nccc(-c2cc3c(s2)C(C)(C)N(CCN2CCOCC2)C3=O)n1 + COc1cc2nc(C)nc(NC(C)c3cc(N)cc(C(F)(F)F)c3)c2cc1OC1CCOC1
3. COc1cc(Nc2ncc3c(n2)-c2ccc(Cl)cc2C(c2c(F)cccc2OC)=NC3)ccc1C(=O)O + CC1OCC2(CCN(c3cnc(Sc4ccnc(N)c4Cl)c(N)n3)CC2)C1N

[78.9, 68.8, 74.6]

###

# System: CN0375-F725-PDC KRAS spheroid viability
# PROCEDURE_TEXT: Anticancer human tumor CN0375-F725-PDC cell line growth inhibition [KRAS2]; active = viability on the fitted dose curve at most 10% of control; inactive = the rest;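 note: spheroids exposed to agents for 7 days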
# ASSAY_CONTEXT: second compound 3.16 µM; first compound 0.1 µM; spheroids with HUVEC and MSC
The reply should be one of these categories: active, inactive

In this assay, the call recorded for CC(C)NCC(C(=O)N1CCN(c2ncnc3c2C(C)CC3O)CC1)c1ccc(Cl)cc1 (stereo not drawn) + C=CC(=O)N1CCN(c2nc(OCC3CCCN3C)nc3c2CCN(c2cccc4cccc(C)c24)C3)CC1CC#N was what?
inactive

Then what about the compound CC(=O)OC12COC1CC(O)C1(C)C(=O)C(O)C3=C(C)C(OC(=O)C(O)C(NC(=O)OC(C)(C)C)c4ccccc4)CC(O)(C(OC(=O)c4ccccc4)C21)C3(C)C (stereo not drawn) + COc1cc2nc(C)nc(NC(C)c3cc(N)cc(C(F)(F)F)c3)c2cc1OC1CCOC1 ?
inactive

Then what about the compound CCN1CCN(Cc2ccc(Nc3ncc(F)c(-c4cc(F)c5nc(C)n(C(C)C)c5c4)n3)nc2)CC1 + CNCc1ccccc1-c1csc(C(C)Nc2nc(C)nc3cc(OC)c(OC)cc23)c1 ?
active
